- assay remarks: non-covalent RecA intein splicing inhibitors, dose response, biochemical, cell-free, fluorescence, secondary screen (AID 449750)
Activity calls are given as the source filed them. The rule behind the calls is not given here.
Possible outcomes: active, inactive

>  <compound>
N#Cc1c(-c2ccccc2)nc(SCC(=O)N2c3ccccc3Sc3ccccc32)[nH]c1=O

>  <qualitative label>
active

$$$$
>  <compound>
CCOC(=O)c1c(NC(C)=O)sc2c1CCC(C=NCCCN(CC)CC)=C2Sc1ccccc1

>  <qualitative label>
active

$$$$
>  <compound>
O=[N+]([O-])c1cc([N+](=O)[O-])c2oc(-c3ccccc3)c(Br)c2c1O

>  <qualitative label>
active

$$$$
>  <compound>
CCN(CC)c1ccc2c(c1)CCCN2

>  <qualitative label>
inactive

$$$$
>  <compound>
Cc1cccc(Nc2nc(NCc3ccco3)c3ccccc3n2)c1

>  <qualitative label>
active

$$$$
>  <compound>
CCOc1cc(/C=C2/SC(=S)N(Cc3ccccc3)C2=O)ccc1O

>  <qualitative label>
inactive

$$$$
>  <compound>
CC(C)(c1ccccc1)c1ccc(OCC2CO2)cc1 (stereo unspecified)

>  <qualitative label>
active

$$$$
>  <compound>
CSc1nc(-c2ccccc2)nn1C(=O)c1ccc(Cl)cc1

>  <qualitative label>
inactive

$$$$
>  <compound>
O=C(Oc1ccc(-c2nnco2)cc1)c1ccco1

>  <qualitative label>
inactive

$$$$
>  <compound>
COc1ccccc1-c1cc(C(F)(F)F)nc(S(=O)(=O)CCCC(=O)NCc2ccc(F)cc2)n1

>  <qualitative label>
active

$$$$
>  <compound>
O=[N+]([O-])c1cc([N+](=O)[O-])c2c(=Nc3ccccc3)n(-c3ccccc3)n(O)c2c1

>  <qualitative label>
active

$$$$

* * *

- assay remarks: non-covalent RecA intein splicing inhibitors, dose response, biochemical, cell-free, fluorescence, secondary screen (AID 449750)
Calls of active or inactive are those of the source. No rule for the calls is given here.
Possible outcomes: true for active, false for inactive

>  <molecule>
CCCc1ccc(/C=C2\C(=O)c3ccccc3C(O)=C2C(=O)OCC)cc1

>  <qualitative label>
true

$$$$
>  <molecule>
O=C1C(Cl)=C(Nc2ccc(O)cc2)C(=O)c2ccccc21

>  <qualitative label>
true

$$$$
>  <molecule>
C/C(CC(=O)Nc1ccccn1)=N\NC(=O)c1ccc(C)cc1

>  <qualitative label>
false

$$$$
>  <molecule>
Cc1nn(-c2ccccc2)c2c1C(c1ccncc1)C(C#N)=C(N)O2 (stereo unspecified)

>  <qualitative label>
false

$$$$
>  <molecule>
CCc1[nH]nc2c1C(Cc1ccccc1)C(C#N)=C(N)O2 (stereo unspecified)

>  <qualitative label>
false

$$$$
>  <molecule>
Cc1ccc2nc(N/N=C\c3ccc([N+](=O)[O-])o3)nc(-c3ccccc3)c2c1

>  <qualitative label>
false

$$$$

* * *

- assay remarks: non-covalent RecA intein splicing inhibitors, dose response, biochemical, cell-free, fluorescence, secondary screen (AID 449750)
The source made the active and inactive calls. No rule for the calls is given here.
Possible outcomes: YES (active), NO (inactive)

>  <chemical smiles>
CC1=NN(c2ccccc2)C(=O)/C1=C/c1cccc(C)c1

>  <qualitative label>
YES

$$$$
>  <chemical smiles>
COC(=O)c1ccc(C(c2c(C)[nH][nH]c2=O)c2c(C)[nH][nH]c2=O)cc1

>  <qualitative label>
NO

$$$$
>  <chemical smiles>
Cc1cccc(C(=O)c2cnc3ccccc3c2-c2ccccc2)c1

>  <qualitative label>
YES

$$$$
>  <chemical smiles>
COC(=O)c1c(NC(=O)/C=C/C(=O)O)sc(C)c1-c1ccc(C)c(C)c1

>  <qualitative label>
YES

$$$$
>  <chemical smiles>
Cc1ccc(NC2=C/C(=N\S(=O)(=O)c3cccs3)c3ccccc3C2=O)c(C)c1

>  <qualitative label>
YES

$$$$

* * *

- assay remarks: non-covalent RecA intein splicing inhibitors, dose response, biochemical, cell-free, fluorescence, secondary screen (AID 449750)
Calls of active or inactive are those of the source. How the calls were made is not given here.

>  <compound>
O=C(Nc1n[nH]c(C(F)(F)F)n1)c1cccs1

>  <AC50>
> 38 µM (inactive)

$$$$
>  <compound>
Cc1c(Cl)cccc1NC(=S)/C(=C(\[O-])c1ccc(Cl)s1)[n+]1ccccc1

>  <AC50>
> 38 µM (inactive)

$$$$
>  <compound>
O=C(NC1C(=O)NNC1c1ccc(Cl)cc1)c1ccc(F)cc1 (stereo not given)

>  <AC50>
> 38 µM (inactive)

$$$$
>  <compound>
Cc1ccc(C2CC(c3cccs3)=NN2C(=O)CCl)cc1 (stereo not given)

>  <AC50>
1.68 µM

$$$$
>  <compound>
CC1=NN(c2ccccc2)C(=O)/C1=C\c1cc(C)n(-c2cccnc2)c1C

>  <AC50>
> 38 µM (inactive)

$$$$
>  <compound>
Cc1cc(C)cc(S(=O)(=O)c2cnc3ccccc3n2)c1

>  <AC50>
> 38 µM (inactive)

$$$$
>  <compound>
CC(=O)C1=C(c2ccc(Br)cc2)C(=O)c2ccccc2C1=O

>  <AC50>
7.18 µM

$$$$
>  <compound>
Oc1cnn(-c2ccccc2)c1

>  <AC50>
> 38 µM (inactive)

$$$$
>  <compound>
O=C(Sc1nnc(-c2ccccc2)o1)N1c2ccccc2Sc2ccccc21

>  <AC50>
11 µM

$$$$
>  <compound>
COc1ccc(C(=O)n2nnc3ccccc32)cc1Br

>  <AC50>
> 38 µM (inactive)

$$$$

* * *

List of AC50 values.
- assay remarks: non-covalent RecA intein splicing inhibitors, dose response, biochemical, cell-free, fluorescence, secondary screen (AID 449750)
The source made the active and inactive calls. No rule for the calls is given here.
endpoint label: AC50

>  <compound>
NS(=O)(=O)c1ccc(N=Cc2c(O)c3ccccc3oc2=O)cc1

>  <val>
> 38 µM (inactive)

$$$$
>  <compound>
CCCNC1=C(N(C(C)=O)c2cccc(F)c2)C(=O)c2ccccc2C1=O

>  <val>
3.72 µM

$$$$
>  <compound>
CN1CCN(C(c2ccc(C(F)(F)F)cc2)c2cc(Cl)c3cccnc3c2O)CC1 (stereo not given)

>  <val>
> 38 µM (inactive)

$$$$
>  <compound>
COc1cc(C2NC(=O)C(C#N)=C(Nc3cccc(C)c3)S2)ccc1O (stereo not given)

>  <val>
3.17 µM

$$$$
>  <compound>
Cc1[nH][nH]c(=O)c1C(c1ccc(Br)cc1)c1c(C)[nH][nH]c1=O

>  <val>
11.1 µM

$$$$

* * *

- assay remarks: non-covalent RecA intein splicing inhibitors, dose response, biochemical, cell-free, fluorescence, secondary screen (AID 449750)
The source made the active and inactive calls. How the calls were made is not given here.
Possible outcomes: active, inactive

>  <chemical smiles>
Cc1ccc(NC(=O)c2sc3ncnc(N4CCN(c5ccccn5)CC4)c3c2C)c(C)c1

>  <qualitative label>
inactive

$$$$
>  <chemical smiles>
CN1c2ccc(C=O)c3c(C=O)ccc(c23)N(C)C1(C)C

>  <qualitative label>
inactive

$$$$
>  <chemical smiles>
[O-][N+]1=c2ccc(Nc3ccccc3)cc2=NC12CCCCC2

>  <qualitative label>
active

$$$$
>  <chemical smiles>
CCCCCCCOC(=O)c1ccc(OC(=O)c2cccnc2)cc1

>  <qualitative label>
active

$$$$

* * *

- assay remarks: non-covalent RecA intein splicing inhibitors, dose response, biochemical, cell-free, fluorescence, secondary screen (AID 449750)
The source made the active and inactive calls. No rule for the calls is given here.
Possible outcomes: True for active, False for inactive

>  <compound>
Cc1[nH][nH]c(=O)c1C(c1ccc(Cl)cc1)c1c(C)[nH][nH]c1=O

>  <qualitative label>
True

$$$$
>  <compound>
CCCc1nn(C)c2c1C(c1cccnc1)C(C#N)=C(N)O2 (centres undefined)

>  <qualitative label>
False

$$$$
>  <compound>
O=C(CCl)Nc1cccc(Oc2ccccc2)c1

>  <qualitative label>
True

$$$$
>  <compound>
O=C(CNC(=O)c1ccccc1)N/N=C/c1ccc([N+](=O)[O-])o1

>  <qualitative label>
False

$$$$

* * *

- assay remarks: non-covalent RecA intein splicing inhibitors, dose response, biochemical, cell-free, fluorescence, secondary screen (AID 449750)
Activity calls are given as the source filed them. The rule behind the calls is not given here.
Possible outcomes: class 1 (active), class 0 (inactive)

>  <molecule>
O=C1C(Cl)=C(NS(=O)(=O)c2ccc([N+](=O)[O-])cc2)C(=O)c2ccccc21

>  <qualitative label>
class 1

$$$$
>  <molecule>
CSc1nnc(NC(=O)c2nc(S(=O)(=O)Cc3ccccc3F)ncc2Cl)s1

>  <qualitative label>
class 0

$$$$
>  <molecule>
CC(C)(C)c1cc(C(=O)CCN2CCOCC2)cc(C(C)(C)C)c1O

>  <qualitative label>
class 1

$$$$
>  <molecule>
O=C1C2=C(c3ccccc31)[N+](=O)C1CCCCC1N2[O-] (stereo unspecified)

>  <qualitative label>
class 1

$$$$
>  <molecule>
CC(C)c1nnc(NC(=O)c2nc(S(=O)(=O)Cc3ccccc3)ncc2Cl)s1

>  <qualitative label>
class 1

$$$$
>  <molecule>
CC(C)Cc1ccc(-c2cc(=O)[nH][nH]2)cc1

>  <qualitative label>
class 1

$$$$
